target: human NPR1 (Homo sapiens, UniProt P16066); construct: host or cells: CHO-K1; assay: Cellular cGMP production assay, human NPR1 expressing CHO-K1 cells (CisBio HTRF); format: cell-based; settings: maximum cGMP production as percentage of the maximum cGMP produced with ANP
Sequence (P16066 33-1061): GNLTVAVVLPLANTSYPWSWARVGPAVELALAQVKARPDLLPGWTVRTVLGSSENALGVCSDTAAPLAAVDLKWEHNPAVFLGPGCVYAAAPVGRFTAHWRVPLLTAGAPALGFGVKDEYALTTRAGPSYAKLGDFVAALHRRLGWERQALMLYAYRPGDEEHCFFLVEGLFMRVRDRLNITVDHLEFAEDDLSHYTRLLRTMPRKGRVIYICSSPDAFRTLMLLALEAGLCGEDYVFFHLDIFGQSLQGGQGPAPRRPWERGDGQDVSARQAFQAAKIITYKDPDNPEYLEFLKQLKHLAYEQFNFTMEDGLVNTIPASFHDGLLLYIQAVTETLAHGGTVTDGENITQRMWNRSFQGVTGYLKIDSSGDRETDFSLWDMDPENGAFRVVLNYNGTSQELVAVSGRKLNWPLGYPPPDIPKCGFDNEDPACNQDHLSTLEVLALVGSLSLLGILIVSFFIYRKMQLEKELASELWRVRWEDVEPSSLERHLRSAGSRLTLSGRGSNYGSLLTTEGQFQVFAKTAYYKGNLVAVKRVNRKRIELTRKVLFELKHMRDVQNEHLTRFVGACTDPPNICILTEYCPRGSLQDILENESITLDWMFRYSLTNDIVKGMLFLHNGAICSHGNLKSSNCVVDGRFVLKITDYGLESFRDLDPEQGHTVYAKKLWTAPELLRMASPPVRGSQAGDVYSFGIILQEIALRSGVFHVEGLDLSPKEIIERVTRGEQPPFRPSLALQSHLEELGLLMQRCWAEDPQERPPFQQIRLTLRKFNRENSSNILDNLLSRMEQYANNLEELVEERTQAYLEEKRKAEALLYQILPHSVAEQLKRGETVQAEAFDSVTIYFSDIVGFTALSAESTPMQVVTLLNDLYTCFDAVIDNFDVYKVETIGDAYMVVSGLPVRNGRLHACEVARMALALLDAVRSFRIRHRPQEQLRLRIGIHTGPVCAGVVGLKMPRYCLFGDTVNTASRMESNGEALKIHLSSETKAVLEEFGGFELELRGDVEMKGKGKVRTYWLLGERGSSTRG
Recorded Human NPR1 Amax (% of ANP) by entry

[
  {
    "compound": "CC[C@H]([C@H]1CC[C@H](C(=O)O)CC1)N(C)c1nc2c(c(N[C@@H](CN3CCCCC3)c3cnn(C)c3)n1)CN(c1cccc(F)c1)CC2 [Compound 157]",
    "Human NPR1 Amax (% of ANP)": "99.549 % of ANP"
  },
  {
    "compound": "CC[C@H]([C@H]1CC[C@H](C(=O)O)CC1)N(C)c1nc2c(c(N[C@@H](CN3CCCC[C@@H]3CO)c3cnn(CC)c3)n1)C[C@H](c1cccc(F)c1)CC2 [Compound 104]",
    "Human NPR1 Amax (% of ANP)": "106.357 % of ANP"
  },
  {
    "compound": "CC[C@@H](Nc1nc2c(c(N[C@@H](CN3CCC[C@H](C)C3)c3scnc3C)n1)C[C@H](c1ccccc1)CC2)[C@H]1CC[C@H](C(=O)O)CC1 [Compound 73]",
    "Human NPR1 Amax (% of ANP)": "94.290 % of ANP"
  },
  {
    "compound": "CC[C@@H](Nc1nc2c(c(N[C@@H](CN3CCCC4(CCOC4)C3)c3cnn(CC)c3)n1)C[C@H](c1ccccc1)CC2)[C@H]1CC[C@H](C(=O)O)CC1 (stereo partly shown) [Compound 109]",
    "Human NPR1 Amax (% of ANP)": "91.101 % of ANP"
  },
  {
    "compound": "CC[C@H]([C@H]1CC[C@H](C(=O)O)CC1)N(C)c1nc2c(c(N[C@@H](CN3CCC(O)CC3)c3cnn(CC)c3)n1)C[C@H](c1ccccc1)CC2 [Compound 154]",
    "Human NPR1 Amax (% of ANP)": "105.125 % of ANP"
  },
  {
    "compound": "CC[C@@H](N(C)c1nc2c(c(N[C@@H](CN3C4CCCC3CCC4)c3cnn(C)c3)n1)C[C@H](c1cccc(F)c1)CC2)C12CC(C(=O)O)(C1)C2 [Compound 6]",
    "Human NPR1 Amax (% of ANP)": "98.462 % of ANP"
  },
  {
    "compound": "CC[C@H]([C@H]1CC[C@H](C(=O)O)CC1)N(C)c1nc2c(c(N[C@@H](CN3CCC[C@H](C)C3)c3cnn(C)c3)n1)CN(c1cccc(Cl)c1)CC2 [Compound 170]",
    "Human NPR1 Amax (% of ANP)": "97.591 % of ANP"
  },
  {
    "compound": "CC[C@@H](Nc1nc2c(c(N[C@@H](CN3CCCC3)c3ccccc3)n1)C[C@H](c1ccccc1)CC2)[C@H]1CC[C@H](C(=O)O)CC1 [Compound 85]",
    "Human NPR1 Amax (% of ANP)": "102.461 % of ANP"
  },
  {
    "compound": "CCC(N(C)c1nc2c(c(N[C@@H](CN3C4CCCC3CCC4)c3cnn(C)c3)n1)C[C@H](c1ccccc1)CC2)C12CC(C(=O)O)(C1)C2 (stereo partly shown) [Compound 74]",
    "Human NPR1 Amax (% of ANP)": "102.182 % of ANP"
  },
  {
    "compound": "CC[C@@H](N(C)c1nc2c(c(N[C@@H](CN3C4CCCC3CC4)c3scnc3C)n1)C[C@H](c1cccc(F)c1)CC2)C12CC(C(=O)O)(C1)C2 [Compound 113]",
    "Human NPR1 Amax (% of ANP)": "98.462 % of ANP"
  }
]

# credit: patent US12129246B1
